Taken from the supplement of paper PMC12669032.

- Tested on: Bacteroides uniformis
- assay_name: growth AUC relative to DMSO control (median of replicates) (fraction); higher = more growth (less inhibition), active = hit call of the paper
- run_parameters: 20 µM; 24 h
Assign T whenever growth AUC does not fall below 1; assign F whenever it does.

// below: answered compounds
CNC(=O)ON=C(CSC)C(C)(C)C = T
CCNc1nc(NC(C)C)nc(OC)n1 = F

Next item in the queue.
Input line: Given "Clc1ccccc1Cl" , state whether its growth AUC is at least 1.
Output line: T

###

- Test system: Akkermansia muciniphila
- assay_name: growth AUC relative to DMSO control (median of replicates) (fraction); higher = more growth (less inhibition), active = hit call of the paper
- run_parameters: 20 µM; 24 h
observation_type: growth AUC
One number for each entry.

Here are 5 compounds together with their reported answers.
CC1=NNC(=O)N(/N=C/c2cccnc2)C1 = 0.995
CCCN(CCC)c1c([N+](=O)[O-])cc(C(F)(F)F)cc1[N+](=O)[O-] = 1.02
CCOP(=S)(OCC)SCS(=O)C(C)(C)C (configuration not stated) = 0.905
COP(=O)(OC)Oc1ccc(S(C)(=O)=O)c(C)c1 = 0.876
CCNc1nc(Cl)nc(NCC)n1 = 0.894

Provide growth AUC for all items below, preserving their order.
1. CCCCN(CCCC)N=O
2. CNC(=O)O/N=C(\SC)C(=O)N(C)C
3. CNC(=O)Oc1ccccc1OC(C)C
4. COCc1c(F)c(F)c(COC(=O)C2C(C=C(C)C)C2(C)C)c(F)c1F (configuration not stated)

Output line:
1: 0.985; 2: 1.01; 3: 0.914; 4: 0.976

Provide growth AUC for all items below, preserving their order.
1. ClCC1C(CCl)C2(Cl)C(Cl)=C(Cl)C1(Cl)C2(Cl)Cl (configuration not stated)
2. CCOP(=S)(OCC)SCS(=O)(=O)C(C)(C)C
3. CCC(C)(c1ccc(O)cc1)c1ccc(O)cc1

Output line:
[0.995, 0.89, 0.984]

###

Would you mind telling me the reported growth AUC of each entry?
- Tested on: Bacteroides uniformis
- assay_name: growth AUC relative to DMSO control (median of replicates) (fraction); higher = more growth (less inhibition), active = hit call of the paper
- run_parameters: 20 µM; 24 h

Provide growth AUC for all items below, preserving their order.
1. O=c1oc2ccccc2c(O)c1C1CCCc2ccccc21 (stereo not drawn)
2. CCOC(=O)COc1cc(-c2nn(C)c(OC(F)F)c2Cl)c(F)cc1Cl
3. COC(=O)c1ccccc1S(=O)(=O)NC(=O)N(C)c1nc(C)nc(OC)n1

Output line:
1. 0.701 (active)
2. 1.04 (inactive)
3. 1 (inactive)

###

- System: Bifidobacterium longum subsp. longum
- assay_name: growth AUC relative to DMSO control (median of replicates) (fraction); higher = more growth (less inhibition), active = hit call of the paper
- run_parameters: 20 µM; 24 h
Would you mind telling me the reported growth AUC of each entry?
Give bare numbers.

CCOP(=S)(OCC)Oc1ccc(Cl)cc1Cl = 1.04
CCOC(=O)Nc1cccc(OC(=O)Nc2ccccc2)c1 = 0.944

Provide growth AUC for all items below, preserving their order.
1. O=C(O)C(F)(F)C(F)(F)C(F)(F)C(F)(F)C(F)(F)C(F)(F)C(F)(F)C(F)(F)F
2. O=CNC(N1CCN(C(NC=O)C(Cl)(Cl)Cl)CC1)C(Cl)(Cl)Cl (stereo unspecified)
3. C[C@H]1[C@H](c2ccc(Cl)cc2)SC(=O)N1C(=O)NC1CCCCC1
4. COc1ccccc1N
5. CCO/N=C(\CC)C1=C(O)CC(c2c(C)cc(C)cc2C)CC1=O (stereo unspecified)
6. CCCCN(CCCC)SN(C)C(=O)Oc1cccc2c1OC(C)(C)C2
7. CN(C)C(CSS(=O)(=O)[O-])CSS(=O)(=O)O.[Na+]

Output line:
1: 1.03; 2: 1.08; 3: 0.923; 4: 1.05; 5: 1.05; 6: 0.972; 7: 1.01

Provide growth AUC for all items below, preserving their order.
1. COCC(=O)N(c1c(C)cccc1C)[C@@H](C)C(=O)OC
2. Clc1nc(Cl)nc(Nc2ccccc2Cl)n1

Output line:
1: 1.04; 2: 1.01

###

- System: Fusobacterium nucleatum subsp. animalis
- assay_name: growth AUC relative to DMSO control (median of replicates) (fraction); higher = more growth (less inhibition), active = hit call of the paper
- run_parameters: 20 µM; 24 h
observation_type: growth AUC
Answers are plain numbers.

Here are 2 molecules together with their reported answers.
CCOP(=S)(OCC)Oc1cc(Cl)c(Br)cc1Cl = 1.08
ClC1=C(Cl)C2(Cl)C(CBr)CC1(Cl)C2(Cl)Cl (stereo not drawn) = 0.969

Input line: Report value only: growth AUC, Fusobacterium nucleatum subsp. animalis, "CNC(=O)Oc1ccccc1C(C)C"
Output line: 1.07

###

- System: Bacteroides stercoris
- assay_name: growth AUC relative to DMSO control (median of replicates) (fraction); higher = more growth (less inhibition), active = hit call of the paper
- run_parameters: 20 µM; 24 h
observation_type: growth AUC
Give bare numbers.

Here are 9 molecules together with their reported answers.
CCOP(=S)(OCC)Oc1cc(C)nc(C(C)C)n1 = 0.972
CCCCN(CCCC)N=O = 1
CCOC(=O)C(SP(=S)(OC)OC)c1ccccc1 (stereo not given) = 0.986
CCNS(=O)(=O)C(F)(F)C(F)(F)C(F)(F)C(F)(F)C(F)(F)C(F)(F)C(F)(F)C(F)(F)F = 0.896
C=CCC1=C(C)C(OC(=O)C2C(C=C(C)C)C2(C)C)CC1=O (mixture of isomers) = 0.924
CC(Oc1cc(Cl)c(Cl)cc1Cl)C(=O)O (stereo not given) = 0.973
Cc1ccc(N(SC(F)(Cl)Cl)S(=O)(=O)N(C)C)cc1 = 1.02
O=C(O)CCCOc1ccc(Cl)cc1Cl = 0.922
ClCC1C(CCl)C2(Cl)C(Cl)=C(Cl)C1(Cl)C2(Cl)Cl (stereo not given) = 0.985

Turning now to a further molecule:
Input line: Report value only: growth AUC, Bacteroides stercoris, "CNC(=O)N(C)c1nnc(C(C)(C)C)s1"
Output line: 1

###

- System: Bacteroides clarus
- assay_name: growth AUC relative to DMSO control (median of replicates) (fraction); higher = more growth (less inhibition), active = hit call of the paper
- run_parameters: 20 µM; 24 h
Would you mind telling me the reported growth AUC of each entry?
Give bare numbers.

Clc1ccccc1-c1nnc(-c2ccccc2Cl)nn1 = 0.969
CCOP(=S)(OCC)SCn1c(=O)oc2cc(Cl)ccc21 = 0.94
COP(=O)(OC)OC(Br)C(Cl)(Cl)Br (stereo not drawn) = 0.977

Provide growth AUC for all items below, preserving their order.
1. CC(C)N(C)S(=O)(=O)NC(=O)c1cc(-n2c(=O)cc(C(F)(F)F)n(C)c2=O)c(F)cc1Cl
2. COP(=S)(OC)Oc1ccc(S(=O)(=O)N(C)C)cc1
3. CC(C)=NOCCOC(=O)[C@@H](C)Oc1ccc(Oc2cnc3cc(Cl)ccc3n2)cc1
4. CC1(C(=O)Nc2ccc(O)c(Cl)c2Cl)CCCCC1
5. ClC1=C(Cl)C2(Cl)C(CBr)CC1(Cl)C2(Cl)Cl (stereo not drawn)
6. CO/N=C(/C1=NOCCO1)c1ccccc1Oc1ncnc(Oc2ccccc2Cl)c1F
7. CC(C)=CC1C(C(=O)OCc2coc(Cc3ccccc3)c2)C1(C)C (stereo not drawn)

Output line:
1: 0.989; 2: 0.999; 3: 1; 4: 0.954; 5: 1.02; 6: 0.957; 7: 0.943

Provide growth AUC for all items below, preserving their order.
1. O=C(O)C(F)(F)C(F)(F)C(F)(F)C(F)(F)C(F)(F)C(F)(F)C(F)(F)C(F)(F)C(F)(F)F
2. COC(=O)NCc1cc(/C(C)=N\OCc2cccc(C)n2)ccc1Cl
3. ClC1=C(Cl)C(Cl)(C2(Cl)C(Cl)=C(Cl)C(Cl)=C2Cl)C(Cl)=C1Cl
4. CCOc1nc(NC)nc(NC(=O)NS(=O)(=O)c2ccccc2C(=O)OC)n1
5. CSC1=N[C@@](C)(c2ccccc2)C(=O)N1Nc1ccccc1
6. COC(=O)COc1ccc(Cl)cc1Cl
7. COC(=O)C(Cl)Cl

Output line:
0.933
0.984
0.93
1.01
0.967
0.983
0.992

Provide growth AUC for all items below, preserving their order.
1. COCC(=O)N(c1c(C)cccc1C)[C@H](C)C(=O)OC
2. CN(C)c1nc(=O)n(C2CCCCC2)c(=O)n1C
3. CCCCCCCCn1sccc1=O
4. COc1ccc(-c2ccccc2)cc1NNC(=O)OC(C)C

Output line:
[1.04, 0.985, 0.442, 0.974]

Provide growth AUC for all items below, preserving their order.
1. CCOP(=S)(NC(C)CC)Oc1cc(C)ccc1[N+](=O)[O-] (stereo not drawn)
2. COP(=S)(OC)Oc1ccc(S(N)(=O)=O)cc1
3. C[C@@H](Oc1ccc(Cl)cc1Cl)C(=O)O

Output line:
1: 0.946; 2: 0.995; 3: 1
